Cited source: paper PMC10786891

pKd values for the binders below.
Biological target: T1, EsCas13d, nuclease-dead (Eubacterium siraeum, UniProt B0MS50, R295A;H300A;R849A;H854A)
T1 sequence: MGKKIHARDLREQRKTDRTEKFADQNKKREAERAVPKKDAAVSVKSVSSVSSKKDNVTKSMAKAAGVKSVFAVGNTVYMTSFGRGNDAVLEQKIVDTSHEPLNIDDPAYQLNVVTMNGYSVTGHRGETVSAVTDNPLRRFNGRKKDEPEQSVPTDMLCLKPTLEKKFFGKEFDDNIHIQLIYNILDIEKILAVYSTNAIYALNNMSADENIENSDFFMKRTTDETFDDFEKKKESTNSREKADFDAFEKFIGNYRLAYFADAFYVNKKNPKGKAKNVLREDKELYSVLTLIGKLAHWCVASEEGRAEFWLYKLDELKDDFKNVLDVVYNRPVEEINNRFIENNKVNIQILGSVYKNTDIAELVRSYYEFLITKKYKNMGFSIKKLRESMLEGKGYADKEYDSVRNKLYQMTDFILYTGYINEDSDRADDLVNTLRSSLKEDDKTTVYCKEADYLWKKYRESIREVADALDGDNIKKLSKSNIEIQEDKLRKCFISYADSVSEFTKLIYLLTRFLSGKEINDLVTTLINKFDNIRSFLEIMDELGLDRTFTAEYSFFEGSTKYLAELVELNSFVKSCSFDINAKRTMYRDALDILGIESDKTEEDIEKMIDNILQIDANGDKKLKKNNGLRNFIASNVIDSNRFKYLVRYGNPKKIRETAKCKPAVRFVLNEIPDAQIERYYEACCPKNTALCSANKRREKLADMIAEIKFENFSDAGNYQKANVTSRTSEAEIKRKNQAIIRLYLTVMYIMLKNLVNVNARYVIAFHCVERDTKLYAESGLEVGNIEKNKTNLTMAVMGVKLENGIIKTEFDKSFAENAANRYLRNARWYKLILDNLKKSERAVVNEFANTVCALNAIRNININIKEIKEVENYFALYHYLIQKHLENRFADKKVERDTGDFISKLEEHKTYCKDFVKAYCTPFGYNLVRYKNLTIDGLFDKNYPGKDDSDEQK
Experiment: crRNA (strand 1, pre-loaded); Mg2+; 40 mM Tris-HCl pH 7.5, 150 mM NaCl, 6 mM MgCl2, 1 mM DTT, 0.1% Tween-20, 0.2 mg/ml BSA; 25 C; 10 min per concentration, then washed
Conditions: tags: His6-TwinStrep-SUMO cleaved; N-terminal SNAP kept (SNAP-Surface 488); label: 3' end held by stalled T7 RNA polymerase
In textbook form, pKd equals minus log to base ten of the concentration in mol/L.

{"columns": ["binder", "pKd"],
 "data": [
  ["target 2 MT 5'PFS UGC 3'PFS AGC (mixed) RNA 1: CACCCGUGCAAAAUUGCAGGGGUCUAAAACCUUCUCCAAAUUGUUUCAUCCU RNA 2: GGGAAUGGAUCCACAUCUACGAAUUCUGCAGGAUGAAACAAUUUGGAGAAGAGCAGAUCGGAAGAGCACACGU", 7.71],
  ["target 1 MT 5'PFS GUA 3'PFS CGU (mixed) RNA 1: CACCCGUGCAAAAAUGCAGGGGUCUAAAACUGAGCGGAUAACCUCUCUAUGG RNA 2: GGGAAUGGAUCCACAUCUACGAAUUCGUACCAUAGAGAGGUUAUCCGCUCACGUAGAUCGGAAGAGCACACGU", 8.25]
]}

// next item, pKd requested
input: Given the binder target 1 C2U,G5A (mixed) RNA 1: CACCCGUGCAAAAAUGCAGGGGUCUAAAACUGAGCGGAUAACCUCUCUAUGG RNA 2: GGGAAUGGAUCCACAUCUACGAAUUCGUACCAUAGAGAGGUUAUCCACUUACCGAGAUCGGAAGAGCACACGU , what is its reported pKd?
output: 7.31
